Taken from paper PMC6607443.

target: dynein light chain LC8 (UniProt P63167); assay: ITC; peptide (500 μM) injected into 25 μM LC8 in the cell; 25°C; 50 mM sodium phosphate, 50 mM NaCl, 1 mM sodium azide, 5 mM β-mercaptoethanol, pH 7.5; single-site model; averages of two to three experiments
Sequence (P63167 whole entry): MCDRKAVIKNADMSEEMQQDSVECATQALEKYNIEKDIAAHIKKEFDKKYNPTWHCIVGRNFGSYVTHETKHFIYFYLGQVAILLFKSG
READOUT_KIND: Kd (µM)
Response body: numeric value in µM, unit text excluded.

Qu. Fill in the blank: the reported Kd of HIV Tat-specific factor 1 (HTATSF1) peptide is ____.
Ans. 10
